assay: protein stability index of a GFP-peptide fusion (GPS, HEK-293T) (PSI 1-6); higher = more stable; conditions: treatment: DMSO; c terminus: a fixed tail appended;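 also: 24-mer peptide tiles fused after GFP, lentivirally expressed, FACS-sorted into six equal bins by GFP/DsRed ratio, decoded by Illumina sequencing, PSI is the read-weighted mean bin number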
Measured Metric: protein stability index
Reply with just the number.

Query: Tell me protein stability index reported for ITYQPAASTKMCEQALGKGCGADS [PLK2]
Reply: 4.06

Query: Assign protein stability index to the following record: RAESTANAGQSDNRSLAEACSEGD [ANKRD17]
Reply: 5.55

Query: Dear colleague, please send me the reported protein stability index for LKALTRNVNRLNESFRDLQLRLLQ [SCARA5] when you can.
Reply: 2.37

Query: Input REAQQYSEALASTRILKHSPESSR [GLIPR2] , output reported protein stability index.
Reply: 4.92

Query: Output protein stability index of QALLKENRLLQEENRTLQVLRAEH [CBY2]
Reply: 4.02

Query: Using known records, supply protein stability index for LGVRRPGGAGKEGVRVNNRFELIN [TCF25]
Reply: 3.05

Query: Indicate its recorded protein stability index; the sequence in question is ISNIFSNYFSAMYSSEDSTLASVP [ELF3]
Reply: 2.2

* * *

assay: protein stability index of a GFP-peptide fusion (GPS, HEK-293T) (PSI 1-6); higher = more stable; settings: treatment: MLN4924 1 uM, 8 h; c terminus: a fixed tail appended
1 means recorded protein stability index is 4 or above; -1 means it is below 4.

Query: Does QVEIFSTNPDLYPVRRIDGLTDVS [IQUB] have a reported protein stability index of at least 4?
Reply: -1

Query: Assess whether reported protein stability index for PEEELDFFEILRLFFPVIYDVKYL [CNOT7] sits at 4 or higher.
Reply: -1

Query: Check this sequence for protein stability index at or above 4: EEDRPLGGGEGHQPAGNRRGQARR [BEX3]
Reply: 1

Query: Has EHKSLTGTARYMSINTHLGKEQSR [CSNK1G3] a recorded protein stability index greater than or equal to 4?
Reply: -1

Query: Does the reported protein stability index for QRAFSIQTPEQYYFCYKAILEFAE [PTPN9] fall at or above the 4 mark?
Reply: -1

Query: Does the sequence RPRPQGRSVSEPRDQHPQPSLGDS [RTN2] have recorded protein stability index that is 4 or more?
Reply: 1

Query: Identify whether the reported protein stability index of the following sequence is 4 or greater: PAVRQRVIEEAKTAFLLNIQLFEE [HMOX1]
Reply: -1

Query: Determine whether this sequence has protein stability index no lower than 4: GKYDSGIPPYSRASLKGYQWLKDK [KCNAB2]
Reply: -1

Query: Item GHKRKQPLPKRVAKVPRPPSTLLP [FOXJ1] with protein stability index of 4 or above?
Reply: -1

Query: Does protein stability index meet or surpass 4 for TSVLDALSTDMVHAASDPSSSSGR [SMOC2] ?
Reply: 1

Query: For this sequence, is measured protein stability index 4 or higher? `SSHSRGPLSWAPCGPIAGSRQALS`
Reply: -1

Query: Is it the case that GTPTSHVYMFKNGSGDSGDSSEEE [LYSMD4] has protein stability index reaching or exceeding 4?
Reply: 1

Query: Is protein stability index for PEAAVLFRQMATALAHCHQHGLVL [TRIB3] at or above 4?
Reply: -1

Query: Assess whether reported protein stability index for CRPLLPSCTTRLCQEEQLRSHENK [PSD2] sits at 4 or higher.
Reply: -1

Query: Item QLRSDVCTPGGTTIYGLHALEQGG [PYCR3] with protein stability index of 4 or above?
Reply: -1

Query: Quick check: does VDALKSDKKVRTIIIRSEVPGIFC [AUH] have protein stability index greater than or equal to 4?
Reply: -1

Query: Check this sequence for protein stability index at or above 4: RTPEPLEEFPKREDQEGSPPETSL [MYBL2]
Reply: 1

Query: State whether the measured protein stability index reaches 4, counting equality as reaching it, for LQELKKLKNSNYESIQQTARSIAE [PPTC7]
Reply: -1

Query: Record GLFVPSLLCGAAFGRLVANVLKSY [CLCN6] ; criterion: protein stability index no lower than 4. Met?
Reply: -1

Query: Say whether AFAQRPSSAPDLMCLSPDRKMEVE [CDC25B] shows protein stability index of 4 or more.
Reply: 1

Query: hey, is protein stability index for this one >= 4? PQVLADLGSFESPANSETSDLTLY [PCDHGA10]
Reply: 1

Query: Hello, I need to know if PSIYHTMASPCSAMAYHHDSRRIF [WDFY1] has measured protein stability index not below 4. Thanks!
Reply: -1

Query: Could you tell me if the measured protein stability index of HSAAYRADPLRVSSRDKLTEMAAS [FUNDC2] reaches 4 or more?
Reply: 1

Query: Check the entry LYVRRVFIMDSCDELIPEYLNFIR [HSP90AB1] : does protein stability index equal or exceed 4?
Reply: -1
